# key: entry, value: pIC50
Test system: IL-6 production in human corneal epithelium cell line (HCE-T)
procedureSummary: IL-6 production inhibitory action evaluation test (LPS stimulation, HTRF)
Assay type: cell-based
settings: IL-6 production inhibition, 4 hours
pIC50: −log10 of the molar value.

| compound | qualifyingSign | pIC50 |
| --- | --- | --- |
| COc1cc(OCC(O)CC(=O)OC(C)(C)C)ccc1-c1ccc2c(c1COc1cc(F)ccc1C)N(C)C(=O)C(C)(C)N2 (stereo not drawn) [Compound 7-2] | = | 7.08 |
| COc1cc(OC[C@H](O)CC#N)ccc1-c1ccc2c(c1COc1cc(F)ccc1C)N(C)C(=O)C(C)(C)N2 [Compound 5-1] | = | 7.85 |
| COc1ccc(O)cc1-c1ccc2c(c1COc1cc(F)ccc1C)N(C)C(=O)C(C)(C)N2 [Control compound C] | = | 7.03 |
| COc1cc(OC[C@@H](O)CC#N)ccc1-c1ccc2c(c1COc1cc(F)ccc1C)N(C)C(=O)C(C)(C)N2 [Compound 5-2] | = | 7.89 |
| CCOC(=O)C(O)COc1ccc(-c2ccc3c(c2COc2cc(F)ccc2C)N(C)C(=O)C(C)(C)N3)c(OC)c1 (stereo in doubt) [Compound 1-6] | > | 9.00 |
| CC[C@@H](O)COc1ccc(-c2ccc3c(c2COc2cc(F)ccc2C)N(C)C(=O)C(C)(C)N3)c(OC)c1 [Compound 1-4] | = | 7.47 |
